# TARGET_OF_ASSAY: RAF kinases (Homo sapiens)
# Sequence (P04049 whole entry): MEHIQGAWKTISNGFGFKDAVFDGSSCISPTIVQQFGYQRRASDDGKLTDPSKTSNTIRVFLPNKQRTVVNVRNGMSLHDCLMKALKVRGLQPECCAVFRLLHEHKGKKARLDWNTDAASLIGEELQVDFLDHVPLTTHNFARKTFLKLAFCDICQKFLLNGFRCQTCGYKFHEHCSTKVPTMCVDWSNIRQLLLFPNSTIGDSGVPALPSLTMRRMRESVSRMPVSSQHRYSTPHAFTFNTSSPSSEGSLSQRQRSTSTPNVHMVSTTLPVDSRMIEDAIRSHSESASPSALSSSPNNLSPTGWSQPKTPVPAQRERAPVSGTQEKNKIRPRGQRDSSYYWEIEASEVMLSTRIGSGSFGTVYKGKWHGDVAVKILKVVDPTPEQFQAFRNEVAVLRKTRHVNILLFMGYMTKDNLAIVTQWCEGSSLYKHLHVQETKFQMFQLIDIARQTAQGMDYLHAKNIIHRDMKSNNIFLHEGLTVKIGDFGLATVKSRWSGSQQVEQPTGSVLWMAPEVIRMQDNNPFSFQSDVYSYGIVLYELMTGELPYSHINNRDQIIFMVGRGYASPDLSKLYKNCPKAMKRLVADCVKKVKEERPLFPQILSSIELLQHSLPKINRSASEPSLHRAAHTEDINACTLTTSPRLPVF
# ASSAY_INFO: biochemical
pKd: −log10 of the molar value. Structures can show the parent of a compound that is named as a salt.
Assign pKd to each entry below.

For this molecule ( COCCOc1cc2ncnc(Sc3cccc(NC(=O)Nc4cc(C(C)(C)C)on4)c3)c2cc1OC [Ex 52, hydrochloride] ), measured pKd is 6.30 to 6.60

COc1cc2ncnc(Oc3cccc(NC(=O)Nc4cc(C(C)(C)C)nn4-c4cc[nH]c(=O)c4)c3)c2cc1OC yielded pKd of 6.30 to 6.60

Value of measured pKd for the entry COc1cc2ncnc(Oc3cc(NC(=O)Nc4cc(C(C)(C)C)on4)ccc3F)c2cc1OC : 6.00 to 6.30

Memo: COc1cc2ncnc(Sc3cccc(NC(=O)Nc4cc(CN5CCOCC5)cc(C(F)(F)F)c4)c3)c2cc1OC , reported pKd: 6.00 to 6.30

Entry COc1cc2c(Sc3cccc(NC(=O)Nc4cc(C(C)(C)C)on4)c3)ncnc2cc1OCCCN1CCN(S(C)(=O)=O)CC1 , pKd reported as 6.00 to 6.30

The recorded pKd for entry COc1cc2ncnc(Oc3cccc(NC(=O)Nc4cc(C(C)(C)C)nn4C)c3)c2cc1OC equals 6.00 to 6.30

pKd reading for COCCOc1cc(NC(=O)Nc2cccc(Oc3ncnc4cc(OC)c(OC)cc34)c2)cc(C(F)(F)F)c1 : 6.30 to 6.60

Lookup result for COCCOc1cc2ncnc(Oc3cccc(NC(=O)Nc4cc(C5CCCC5)no4)c3)c2cc1OC ; measured pKd: 6.30 to 6.60

Lab book: pKd of CCOc1cccc(NC(=O)Nc2cccc(Oc3ncnc4cc(OC)c(OC)cc34)c2)c1 noted as 6.30 to 6.60

The molecule listed as COc1cc2ncnc(Oc3cccc(NC(=O)Nc4cc(C(C)(C)C)nn4C(C)C)c3)c2cc1OC has a reported pKd of 6.30 to 6.60

In plain terms, COc1cc2ncnc(Oc3cccc(NC(=O)Nc4cc(C(C)(C)C)on4)c3)c2cc1OCCCN1CCCCC1 has a documented pKd of 6.00 to 6.30

Value of pKd reported for the molecule COc1cc2ncnc(Sc3cccc(NC(=O)Nc4cc(C(C)(C)C)on4)c3)c2cc1OCCCN1CCCCC1 is 6.00 to 6.30

Noted for COc1cc2ncnc(Oc3cccc(NC(=O)Nc4cc(C(C)(C)C)on4)c3)c2cc1OCCN1CCN(C)CC1 : its pKd reads 6.00 to 6.30

Form field pKd, entry COc1cc2ncnc(Sc3cccc(NC(=O)Nc4cc(C(C)(C)C)on4)c3)c2cc1OCCN1CCN(C)CC1 : 6.30 to 6.60

What the record says about COc1cc2c(Oc3cccc(NC(=O)Nc4cc(C(C)(C)C)on4)c3)ncnc2cc1OCCN1CCOCC1 : pKd is 6.30 to 6.60

For this molecule ( COc1cc2c(Oc3cccc(NC(=O)Nc4cc(C(C)(C)C)on4)c3)ncnc2cc1OCCN1CCN(C)CC1 ), measured pKd is 6.30 to 6.60
